Biological target: LIMK2KD (Homo sapiens, UniProt P53671)
Construct: The cDNA coding for LIMK2 residues 330 to 632 was PCR amplified; His6 (N, cleaved yes); made in house; host or cells: baculovirus; Sf9 for virus, TriEx insect cells for expression
Sequence (P53671 330-632): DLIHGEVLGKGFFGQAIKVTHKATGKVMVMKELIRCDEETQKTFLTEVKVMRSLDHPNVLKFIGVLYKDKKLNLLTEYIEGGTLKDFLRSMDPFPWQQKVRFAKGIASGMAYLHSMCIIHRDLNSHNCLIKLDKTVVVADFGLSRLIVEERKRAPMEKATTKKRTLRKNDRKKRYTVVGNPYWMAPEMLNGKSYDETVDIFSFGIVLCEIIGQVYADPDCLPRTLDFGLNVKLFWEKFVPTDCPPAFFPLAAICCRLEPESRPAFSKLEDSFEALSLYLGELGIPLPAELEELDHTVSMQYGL
Assay: Differential (dynamic) scanning fluorimetry (DSF) assay, LIMK2KD
Assay type: binding
Settings: LIMK2KD, compound 10 µM, single shot; read-out: TM Shift LIMK2 (K)
Property: ΔTm at 10 µM; scope: individual compounds

COc1cc(N2CCC(N3CCN(C)CC3)CC2)ccc1Nc1ncnc(Nc2ccccc2S(=O)(=O)C(C)C)n1 ... 1.4 °C
Nc1nccc(Oc2ccc(NC(=O)c3c[nH]cc(-c4ccc(F)cc4)c3=O)cc2F)c1Cl ... 2 °C
C=CC(=O)Nc1cccc(Nc2nc(Nc3ccc(N4CCN(C(C)=O)CC4)cc3OC)ncc2C(F)(F)F)c1 ... -0.4 °C
O=C(NC[C@H](O)CO)c1ccncc1Nc1ccc(I)cc1F ... 2.1 °C
Cn1cnc(N)c2ncnc1-2 ... 0.5 °C

Please turn your attention to the following entry.
Form field: reported ΔTm at 10 µM of `C=CCN(/C=C1/C(=O)O[C@H](COC)[C@@]2(C)C1=C(O)C(=O)C1=C2[C@H](OC(C)=O)C[C@]2(C)C(=O)CC[C@@H]12)CC=C` 0.6 °C
